- System: RXF 393 renal
- assay.details: NCI-60 one-dose screen, 48 h (100 = growth as untreated, 0 = no growth, -100 = all killed)
- assay.context: 10 µM unless noted
This is part of a sample that, as a whole, favours compounds with a hit. Of some 83,000 tested, about 20% had one in any assay.
Threshold 70%: growth strictly smaller gives True, otherwise False.

Use these answered entries as a reference point.
CN(C)CCCN1c2ccccc2CCc2ccccc21 ... False
CC(C)(CCc1ccccn1)C(=O)CCCc1ccccn1 ... False
CCOC(=O)c1ccc(NC(=O)CSC(N)=O)cc1 ... False
CC(C)(c1ccccc1)c1cc(O)c(C(C)(C)c2ccccc2)cc1O ... True
C=CCOC(=O)C1=C(C)NC2=C(C(=O)CC(C)(C)C2)C1c1ccc(OC)cc1 (stereo not given) ... False
CNCCCn1c2c(c3ccc(Cl)cc3c1=O)C(=O)c1cc(OC)cnc1-2 ... True

In the record for CC(C)[C@@]12C[C@@H](OC(=O)C3CO3)[C@@](C)(O1)[C@@H]1CC[C@@H](C)[C@H]1[C@@H]2OC(=O)/C=C/c1ccccc1 (stereo not given in full) , is growth less than 70%?
True

In the record for COc1ccc(NC(=O)c2sc3c(=O)[nH]c(C(F)(F)F)nc3c2C)cc1 , is growth less than 70%?
False

In the record for COc1cc(/C=C\c2cc(/C=C\c3ccc(O)c(OC)c3)n(C(=O)Nc3ccc(C(F)(F)F)cc3)n2)ccc1O , is growth less than 70%?
True

====

- Tested on: OVCAR-5 ovarian
- assay.details: NCI-60 one-dose screen, 48 h (100 = growth as untreated, 0 = no growth, -100 = all killed)
- assay.context: 10 µM unless noted
The panel holds about 83,000 compounds, 20% with a hit somewhere; the sample as a whole holds those more often.
measure.name: growth (%)
Give bare numbers, in %.

CCN(CC)c1ccc(/C=C2/NC(=O)NC2=O)cc1 ... 33.2
CCCCOC(=O)c1cc(O)c(O)c(O)c1 ... 92.2
CCNC(=O)c1ccc2c(c1)nc(-c1ccc(Cl)cc1)n2-c1cc(C(C)(C)C)[nH]n1 ... 63.9
O=c1c2cc(Cl)ccc2oc2ccc(OCCCCCN3CCCCCC3)cc12 ... 97.9
CC(SC(C)C(=O)N/N=C/c1cccc(Cl)c1)C(=O)N/N=C\c1cccc(Cl)c1 (stereo not drawn) ... 115
CCOC(=O)C#Cc1c(C(=O)OCC)nnn1[C@@H]1O[C@H](COC(C)=O)[C@@H](OC(C)=O)[C@H]1OC(C)=O ... 100
O=S1(=O)NCCN1CCNc1nccc(-c2c(-c3cccc(O)c3)nc3sccn23)n1 ... 91.9
COc1ccc(-c2cc(-c3cc4ccccc4oc3=O)n(-c3ccccc3)n2)cc1 ... 91.1
C[N+](C)(C)CCCCCCCCCC[N+](C)(C)C ... 117
CC1(C)OC2OC3C(CN)OC(c4ccccc4)OC3C2O1 (stereo not drawn) ... 104

Go through the list and state growth for each entry.
1. CCS(=O)(=O)Nc1cccc(Nc2c3cccc(C)c3nc3c(C)cccc23)c1OC
2. CCSc1cnnc2ccccc12
3. Cc1ccc(Nc2cccc3ccccc23)cc1
4. CN1C(=O)NC(Cc2c[nH]c3c(Cl)cccc23)C1=O (stereo not drawn)
5. CS(=O)(=O)c1ccc(Cl)c([N+](=O)[O-])c1

21
103
93.2
102
108

Go through the list and state growth for each entry.
1. CC(NC(=O)c1ccccc1)C(=O)Nc1ccccc1 (stereo not drawn)
2. O=C1CCCN1C(O)CCN(Cc1ccccc1)Cc1ccc(Cl)cc1 (stereo not drawn)
3. COc1cccc(-c2cc(-c3cccs3)c(C#N)c(=O)[nH]2)c1
4. CCN1C(=O)N(CC)C2C1N=C(SC)N2/N=C/C=C/c1ccccc1OC (stereo not drawn)
5. CC1CCN(CCCCCOc2ccc3oc4ccc(Cl)cc4c(=O)c3c2)CC1
6. COc1ccc2nc3ccccc3c(NCc3ccc(Cl)cc3)c2c1
7. Cn1c(-c2ccccc2)cc(=O)n1-c1ccccc1

[107, 99.2, 113, 37.2, 72.9, 26.5, 104]

Write down growth measured for item O=C1CCCN1C1CCN2CCCc3cccc1c32 (stereo not drawn)
99.9

====

Kindly supply the reported growth values for the records listed here.
- Test system: MOLT-4 leukemia
- assay.details: NCI-60 one-dose screen, 48 h (100 = growth as untreated, 0 = no growth, -100 = all killed)
- assay.context: 10 µM unless noted
Compounds without any hit were thinned out: in the full panel of roughly 83,000, 20% have a hit.
Numbers only, in %.

O=C1/C=C/[C@@H](O)[C@@H]2C[C@@H](O)C[C@H]2/C=C/CCC[C@H]([C@@H](O)CO)O1 ... 103
O=C(CC(=O)c1cccc(Cl)c1)c1cccc(Cl)c1 ... 21.7
CN(C)N1C(=O)c2c(Cl)c(Cl)c(Cl)c(Cl)c2C1=O ... 88.3

Go through the list and state growth for each entry.
1. C=C1C[C@@]2(C)C(CC[C@]3(C)C2CC=C2C4CC(C)(C)C[C@@H](OC(=O)/C(C)=C\C)[C@]4(C(=O)O)CC[C@]23C)C(C)(C)C1=O (some centres undefined)
2. O=C(NCCN1CCCC1)n1cc(-c2ccncc2)c(-c2cc(O)cc(Cl)c2)n1
3. N#CCCn1cnc2c(N)ncnc21
4. O=C(Nc1ccc(Br)cc1)c1ccc(Cl)c(Cl)c1
5. O=C1c2cccc3cccc(c23)C(=O)N1CCCCCCCCCCN1C(=O)c2cccc3cccc(c23)C1=O
6. N=C(N)c1ccc(-c2ccc(-c3cccs3)s2)cc1F
7. COc1ccc2c(c1)OC1=C(C(=O)OC1)C2c1cc(OC)c2c(c1)OCCO2 (centres undefined)

7.64
82.7
92.1
23.3
107
-55.5
20.8

Go through the list and state growth for each entry.
1. CC(=O)NC1C(O[C@H]2C[C@H]3[C@@H]4CC=C5C[C@@H](O)CC[C@]5(C)[C@H]4CC[C@]3(C)[C@H]2[C@H](C)C(=O)CCC(C)C)OCC(O)C1O (some centres undefined)
2. O=C1Nc2ccc(Cl)cc2/C1=C\c1c(-c2ccc(F)cc2)nc2ccccn12
3. Cc1cc(-c2ccccc2)on1

[-8.22, -4.17, 92.4]

====

- Test system: SF-539 CNS
- assay.details: NCI-60 one-dose screen, 48 h
- assay.context: 10 µM unless noted
About 83,000 compounds went through this panel and 20% of them were active in at least one assay; those are over-represented in the sample as a whole. Calls of active or inactive are those of the source. How the source made its calls: active means growth percent below 10; inactive means the rest.
Response enum: TRUE (active), FALSE (inactive)

Use these answered entries as a reference point.
COc1cc(/C=N/NC(=O)Cn2c(-c3ccc(C)o3)nc3ccccc32)ccc1OCc1ccccc1 ... FALSE
CCCCc1nc(Cl)c(C2CC(c3ccc(S(N)(=O)=O)cc3)=NN2c2ccc(C#N)cc2)[nH]1 (centres undefined) ... FALSE
O=C1OC(/C=C/c2ccccc2)=NC/1=C/c1ccccc1[N+](=O)[O-] ... FALSE
N/C(=N\OC(=O)c1ccccc1)C(C(=O)NOC(=O)c1ccccc1)C1CCCCC1 (centres undefined) ... FALSE
COc1ccc(C(=O)OC2C(OC3C(O)COC(O[C@H]4C[C@H]5[C@@H]6CC=C7C[C@@H](O)CC[C@]7(C)[C@H]6CC[C@]5(C)[C@H]4[C@H](C)C(=O)CCC(C)C)C3OC(N)=O)OCC(O)C2O)cc1 (some centres undefined) ... TRUE

Give the logged outcome of this assay for the following compound: CN(C)c1ccc(/C=C\c2cccc[n+]2C)cc1
FALSE

Give the logged outcome of this assay for the following compound: COc1cc(C2CC(=O)Nc3c2cnn3C)cc(OC)c1OC (centres undefined)
FALSE

Give the logged outcome of this assay for the following compound: CS(=O)(=O)c1ccc(C(=O)Nc2ccc(Cl)c(-c3ccccn3)c2)c(Cl)c1
FALSE

====

- Test system: SW-620 colon
- assay.details: NCI-60 one-dose screen, 48 h
- assay.context: 10 µM unless noted
The panel holds about 83,000 compounds, 20% with a hit somewhere; the sample as a whole holds those more often. The source made the active and inactive calls. Rule for the calls: active = growth percent below 10; inactive = the rest.
Response enum: 1.0 (active), 0.0 (inactive)

Use these answered entries as a reference point.
C#CCO[C@H]1CC[C@H](OCC#C)[C@@H]2[C@H]1[C@H]1C[C@@H]3[C@@]4(C)CCC[C@@](C)(C(=O)OC)[C@@H]4CC[C@@]23C=C1C(C)C ... 0.0
CCN(CC)c1ccc2c(cc1=O)[C@@H](NC(C)=O)CCc1cc(OC)c(OC)c(OC)c1-2 ... 0.0
COc1cccc(-c2cc(-c3cccs3)c(C#N)c(=O)[nH]2)c1 ... 0.0
Cc1[nH]c2ccccc2c1C1=CC(=O)C=CC1=O ... 0.0
CC(C)c1cccc(C#N)c1 ... 0.0
CN(C)CCNC(=O)n1cc(-c2ccncc2)c(-c2cc(O)cc(Cl)c2)n1 ... 0.0

Give the logged outcome of this assay for the following molecule: CN1CCC2(CC1)N=C(SCC(=O)Nc1cnc3ccccc3c1)C(c1ccc(Br)cc1)=N2
1.0

Give the logged outcome of this assay for the following molecule: O=C(Nc1ccc(-n2ccc3c(NC(=O)c4ccccc4)nccc32)cc1)c1ccc(N2CCOCC2)c(C(F)(F)F)c1
0.0

Give the logged outcome of this assay for the following molecule: CC1(C)CN(CCNc2nccc(-c3c(-c4cccc(O)c4)nc4sccn34)n2)S(=O)(=O)N1
0.0

Give the logged outcome of this assay for the following molecule: O=C(CCCN1CCC(O)(c2ccc(Br)cc2)CC1)c1ccc(F)cc1
0.0

Give the logged outcome of this assay for the following molecule: O=C(O)c1cc2cc(OCc3ccccc3)ccc2[nH]1
0.0
